system: MS2 coat protein; assay: apparent KD of MS2 coat protein; designed switch direction (-1 OFF switch, 1 ON switch): -1; higher = weaker reporter binding; settings: input ligand: microRNA oligo, concentration not stated
readout_type: apparent KD of MS2 coat protein (nM)
Quick note: give the figure in nM, leave out the unit.

# input sequence: AAGUACCGGUGAGGAUAUUUUUAAUAGAACUUUAUGAUAUACAUGAGGAUCACCCAUGUUACUUUAAAGAAGGCAUCGGAUAAA [Mat - Exclusion NG 2 - Mod of JL - D87] (Eterna round: R96, puzzle: Exclusion NG 2) ; wanted: its apparent KD of MS2 coat protein
12

Reported apparent KD of MS2 coat protein, sequence GCACGAAGUGUAGGAUAUCUGUGCGAUUAGCUCAGAGAAGGACACAUGAGGAUCACCCAUGUGUUCCAGCGAAAGCAAACGUGC [Eli exng1 - 055] (Eterna round: R96, puzzle: Exclusion NG 1) : ____
7.78

What value of apparent KD of MS2 coat protein has been recorded for this entry: UACAUGAGGAUCACCCAUGUUUUGUCGUGUAUGGUAUUUAUCUAGGAUAUCAUUUUAUCUAGUUAUGAGAAGGAGAAUAUUAAU [JMF's solution 89] (Eterna round: R96, puzzle: Exclusion NG 3)
26.6

Given the entry GCAGCGUAUGUAGGAUAUCGGUCAGUUUCUGAUCGAGAAGGACAUGAGGAUCACCCAUGUUAUUUCAUGCGUGAGCAUGGCUGC [JL ENG1 3.73] (Eterna round: R96, puzzle: Exclusion NG 1) , report its measured apparent KD of MS2 coat protein.
31

Source of measurements: the supplement of paper PMC9170038
